# target-of-assay: Tryptophan 2,3-dioxygenase (Homo sapiens, UniProt P48775)
# Sequence (P48775 whole entry): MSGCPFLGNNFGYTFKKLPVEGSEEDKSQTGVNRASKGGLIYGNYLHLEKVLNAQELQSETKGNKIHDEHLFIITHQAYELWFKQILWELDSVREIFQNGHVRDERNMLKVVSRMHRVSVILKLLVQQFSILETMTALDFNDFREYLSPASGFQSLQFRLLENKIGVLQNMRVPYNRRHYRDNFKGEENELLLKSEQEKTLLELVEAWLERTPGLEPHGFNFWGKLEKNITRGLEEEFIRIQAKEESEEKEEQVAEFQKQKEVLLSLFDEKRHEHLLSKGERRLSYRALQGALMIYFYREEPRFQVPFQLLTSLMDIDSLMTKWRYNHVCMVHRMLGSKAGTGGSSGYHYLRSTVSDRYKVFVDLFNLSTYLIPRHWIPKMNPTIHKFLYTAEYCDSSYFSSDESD
# test-name: Inhibition of recombinant human TDO assessed as reduction in N-formylkynurenine formation using L-tryptophan as substrate and measured after 15 mins
property-label: pIC50
Give bare numbers, as −log10 of the molar value.

Consider the worked cases shown below.
- compound: "CC(=O)OCc1coc2c1C(=O)C(=O)c1c-2ccc2c1CC[C@H](O)C2(C)C"
  target-of-assay: "Tryptophan 2,3-dioxygenase (Homo sapiens, UniProt P48775)"
  numeric-value: 5.62
- compound: "CC1(C)C(=O)C=Cc2c1ccc1c2C(=O)C(=O)c2c(CO)coc2-1"
  target-of-assay: "Tryptophan 2,3-dioxygenase (Homo sapiens, UniProt P48775)"
  numeric-value: 6.35
- compound: "CC1(C)C(=O)C=Cc2c1ccc1c2C(=O)C(=O)c2c(CF)coc2-1"
  target-of-assay: "Tryptophan 2,3-dioxygenase (Homo sapiens, UniProt P48775)"
  numeric-value: 6.24
- compound: "CC(=O)OCc1coc2c1C(=O)C(=O)c1c-2ccc2c1CCC(=O)C2(C)C"
  target-of-assay: "Tryptophan 2,3-dioxygenase (Homo sapiens, UniProt P48775)"
  numeric-value: 6.17

Next up:
For this compound ( CC1(C)CCCc2c1ccc1c2C(=O)C(=O)c2c(CO)coc2-1 [PRZEWAQUINONE A] ), measured pIC50 is 6.35
